These entries and their values trace back to patent US12234212B2.

Tested on: FaDu
method description: Growth delay assay, FaDu
Format: cell-based
details: Homo sapiens; FaDu cells, 96 hours after addition of drug, cell count (Hoechst)
Procedure: Cells were plated in 96 well black walled-clear bottom plates (Griener), DLD-1 WT cells at 2500 cells per well, FaDu, and HeLa cells at 5000 cells per well, and HCT116 at 3000 cells per well, in growth media containing 1000 FBS. […] The plates were imaged on a Cytation 5 auto imager (BioTek) and cells were counted using CellProfiler (http://cellprofiler.org). The percent cell growth delay was calculated and data plotted using GraphPad Prism

[
  {
    "compound": "COc1cc2cc(c1Cl)N(C)C(=O)C[C@H](OC(=O)[C@H](C)N(C)C(=O)CCS)C1(C)O[C@H]1[C@H](C)[C@@H]1C[C@@](O)(NC(=O)O1)[C@H](OC)/C=C/C=C(\\C)C2 (some centres unmarked)",
    "unit name": "nM",
    "IC50": 2.8
  },
  {
    "compound": "COc1cc2cc(c1Cl)N(C)C(=O)C[C@H](OC(=O)[C@H](C)N(C)C(=O)CCC(C)(C)S)C1(C)O[C@H]1[C@H](C)[C@@H]1C[C@@](O)(NC(=O)O1)[C@H](OC)/C=C/C=C(\\C)C2 (some centres unmarked)",
    "unit name": "nM",
    "IC50": 0.13
  }
]
